# cutoff 20 °C applies to melting point; >= gives Met, < gives Not met

1. N#CC1C(=S)NC2(C(=O)Nc3ccccc32)C2=C1CCCC2 (centres undefined) :: Met
2. O=P(N1CC1)(N1CC1)N(N=Cc1ccc(Cl)cc1)c1ccccc1 :: Met
3. CC(C)C(C)N (centres undefined) :: Not met
4. CCCCCC(O)CCCCC :: Met
5. CCCCCCCCCCCCCC(=O)Cl :: Not met
6. O=C(O)COc1ccc(CO)cc1 :: Met
7. CO[Si](OC)(OC)OC :: Not met
8. NCC(O)c1ccc(O)c(O)c1 (centres undefined) :: Met
9. Clc1ccc(I)cn1 :: Met
10. ClC=CCCl (mixture of isomers) :: Not met

###

In this section we review reported melting point values for a set of molecules.
measured_quantity: melting point (°C)

1. O=C(O)/C(=C/c1ccccc1[N+](=O)[O-])c1ccc([N+](=O)[O-])cc1 :: 184
2. CCCCCCCCCCCCCCCCCCCCc1ccccc1 :: 44
3. Fc1cc(Br)ccc1-c1ccccc1 :: 40
4. C=CC1CN2CCC1CC2C(=O)c1ccnc2ccc(OC)cc12 (configuration not stated) :: 108
5. Oc1cc(Br)ccn1 :: 203
6. Cc1cc(C)c(NC(N)=S)c(C)c1 :: 231
7. CCCCCCCCC=O :: -18
8. C[C@H](CCC(=O)O)[C@H]1CC[C@H]2[C@@H]3CC[C@H]4CC(=O)CC[C@]4(C)[C@H]3CC[C@]12C :: 189

###

Categorized via melting point: low-valued (below 60 °C), mid-valued (60 °C to below 200 °C), high-valued (200 °C or more)

1) CCCCN1CCCCC1C(=O)Nc1c(C)cccc1C (configuration not stated) :: mid-valued
2) O=[N+]([O-])c1cc(-c2ccc(O)cc2)ccc1O :: mid-valued
3) C[C@@H]1C(=O)[C@H](C)[C@@H](c2ccc(Cl)cc2)O[C@H]1c1ccc(Cl)cc1 :: mid-valued
4) Clc1c(Cl)c(Cl)c2c(oc3c(Cl)c(Cl)c(Cl)c(Cl)c32)c1Cl :: high-valued
5) N#CCC(=O)c1ccc(Cl)c(Cl)c1 :: mid-valued
6) N#CCc1c(F)cccc1Cl :: low-valued
7) CCCCCCC(N)C(=O)O (configuration not stated) :: high-valued
8) COc1cc(C(=O)O)ccc1F :: high-valued
9) CC(C)c1ncc[nH]1 :: mid-valued
10) N=C(N)NC(=O)Cc1c(Cl)cccc1Cl :: high-valued
11) CC1(C)CC(NCCCCCCNC2CC(C)(C)NC(C)(C)C2)CC(C)(C)N1 :: mid-valued
12) CC(=O)c1ccc(C)cc1 :: low-valued
13) CN=NC :: low-valued
14) Cc1c(S(=O)(=O)Cl)cnn1-c1ccccc1 :: low-valued
15) CC(=O)C=Cc1ccc(C=CC(C)=O)cc1 :: mid-valued
16) Cc1ccc(NN=C2C(=O)NC(=S)NC2=O)cc1 :: high-valued
17) COc1cc(C=O)ccc1OC1OC(CO)C(O)C(O)C1O (configuration not stated) :: mid-valued
18) CCCOc1ccc([N+](=O)[O-])cc1N :: low-valued
19) CC1NC(=O)NC1CCCCCC(=O)O (configuration not stated) :: mid-valued

###

The following ranges of melting point define the classes used here: lower level: < 90 °C; middle level: ≥ 90 °C and < 200 °C; upper level: ≥ 200 °C

1. C#CCC1(OC(N)=O)CCCCC1 :: middle level
2. NC(=O)c1cc(C(F)(F)F)cc(C(F)(F)F)c1 :: middle level
3. O=[N+]([O-])c1ccc2ccc3cccc4ccc1c2c34 :: middle level
4. Oc1cc(C(F)(F)F)nc2c(F)cccc12 :: middle level
5. OCC(O)C(O)C(O)C(O)CO (stereo not drawn) :: middle level
6. CCCOC(N)=O :: lower level
7. C1CC2OC2CC1C1CO1 (stereo not drawn) :: lower level
8. c1ccc(CC2CCCCN2)cc1 (stereo not drawn) :: lower level
9. CC(C)(C)CC(C)(C)c1ccc(O)c(Cc2ccc(Cl)cc2Cl)c1 :: lower level
10. CC(C(=O)O)C(O)(c1ccccc1)c1ccccc1 (stereo not drawn) :: middle level
11. NNC(=O)C(=O)NC1CCCCC1 :: upper level
12. O=C(O)c1ccc(Cl)cc1O :: upper level
13. O=C1CCc2ccccc2C1 :: lower level
14. c1ccc2c(c1)ccc1c3ccccc3ccc21 :: upper level
15. Nc1nn2c(C(F)(F)F)cc(-c3cccs3)nc2c1/N=N/c1cccc([N+](=O)[O-])c1 :: upper level
16. CNC(=O)COc1ccccc1OCC(O)CNC(C)(C)C (stereo not drawn) :: middle level
17. C=C/C=C/C=C :: lower level
18. Nc1ccc(Cl)c(Cl)c1 :: lower level
19. Cc1ccc(C=O)cc1[N+](=O)[O-] :: lower level
20. Cc1cccc(C)c2cc(C(C)C)cc1-2 :: lower level
21. Clc1c(Cl)c(Cl)c2c(c1Cl)OC(c1ccccc1)O2 :: middle level
22. CCCC(=O)OCN1C(=O)NC(c2ccccc2)(c2ccccc2)C1=O :: middle level
23. COc1ccccc1/C=C/C(=O)O :: middle level
24. Cc1ccc(NC(=O)C=Cc2ccc(C=CC(=O)Nc3ccc(C)cc3)cc2)cc1 :: upper level
25. O=C(Nc1ccccc1)OCC1(COC(=O)Nc2ccccc2)CCCC1 :: middle level
26. CC1(C)OC(=O)C(=Cc2ccc(-c3ccc(Br)cc3)o2)C(=O)O1 :: middle level
27. CCOC(C(=O)c1ccccc1)c1ccccc1 (stereo not drawn) :: lower level
28. NC(=O)N1C(=O)C=CC1=O :: middle level
29. Cc1c(C)c(C)c(N)c(C)c1C :: middle level
30. CC(=O)n1c(C)cc2cc3c(cc21)=NC(C)C=3 (stereo not drawn) :: upper level
31. COc1ccc(S(=O)(=O)Cl)cc1OC :: lower level
32. COc1ccc(F)c(C=O)c1OC :: lower level

###

Exam item: assign 1.0 to entries whose melting point is below 100 °C and 0.0 to entries at or above 100 °C. Note that a value of exactly 100 °C receives 0.0.

1. COc1ccc(C2(C)CCc3oc4ccc(C)cc4c3-c3oc(C)cc32)cc1 (stereo unspecified) :: 0.0
2. CCCCCCCC(=O)CCC :: 1.0
3. Oc1ccc(F)c2cccnc12 :: 0.0
4. COC(=O)CCc1ccc(OC)c(O)c1 :: 1.0
5. O=C(c1ccco1)N1CCNCC1 :: 1.0
6. CCOC(=O)CCc1ccc2c(c1)NC(=O)CC2 :: 0.0
7. CC(=O)Nc1ccc([N+](=O)[O-])c(F)c1 :: 0.0
8. O=[N+]([O-])c1ccc(S(=O)(=O)O)c([N+](=O)[O-])c1 :: 0.0
9. CCOP(=S)(OCC)ON=C(C#N)c1ccccc1 :: 1.0
10. COc1c(OC)c(OC(C)=O)c2cc(C#N)ccc2c1OC(C)=O :: 0.0
11. Nc1nc2ccccc2[nH]1 :: 0.0
12. O=C1C(Cl)=C(Cl)C(=O)c2ccccc21 :: 0.0
13. CNCC(O)c1ccc(O)c(O)c1 (stereo unspecified) :: 0.0
14. CCCCCCCCCCCCN1CC(C(=O)O)CC1=O (stereo unspecified) :: 1.0
15. O=C(Nc1ccc(Br)cc1)c1c(O)cccc1O :: 0.0

###

Item-by-item account of melting point
measured_quantity: melting point (°C)

1. Nc1nn2c(C(F)(F)F)cc(=O)[nH]c2c1/N=N/c1cccc(C(F)(F)F)c1 :: 291
2. Nc1ccc(-c2ccc(N)cc2C(F)(F)F)c(C(F)(F)F)c1 :: 183
3. CC(=O)OC(C(=O)c1ccccc1)c1ccccc1 (configuration not stated) :: 82
4. O=[N+]([O-])c1ccc(-c2ccccc2)cc1 :: 114
5. O=C(C1=NOC2C(=O)N(c3ccc(O)cc3)C(=O)C12)c1ccc([N+](=O)[O-])cc1 (configuration not stated) :: 213

###

Recorded melting point, one value per entry.
measured_quantity: melting point (°C)

1) O=[N+]([O-])c1cc(O)ccc1Cl :: 127
2) O=S(=O)(c1ccc(Cl)cc1)c1cc(Cl)c(Cl)cc1Cl :: 147
3) CN(C)c1ccc(CNC(=O)c2cc([N+](=O)[O-])cc([N+](=O)[O-])c2)cc1 :: 145
4) CC(=O)C12OC(C)(c3ccccc3)OC1CC1C3CCC4=CC(=O)CCC4(C)C3CCC12C (stereo unspecified) :: 150
5) COCCNc1c(C=O)c(=O)n(C)c(=O)n1C :: 137
6) CC(=O)CCc1ccc2c(c1)N(C(=O)c1ccccc1)C(C)CC2 (stereo unspecified) :: 74
7) CC(C)(C)NC=O :: 16
8) CC12CCC(C=CC1=O)C2(C)C (stereo unspecified) :: 174
9) CCOC(=O)N1CCNC(c2ccccc2)C1 (stereo unspecified) :: 63
10) Nc1c[nH]c(=O)[nH]c1=O :: 300
11) CSc1[nH]nc(N)c1C#N :: 190
12) CC1(C)C2CCC1(C)C(C(=O)O)C2CC(O)c1ccccc1 (stereo unspecified) :: 119
13) Cn1cc2cc([N+](=O)[O-])ccc2n1 :: 129
14) Cc1cccc(C)c1NC(=O)c1cnc(C(C)(C)C)c(Cl)n1 :: 146
15) CCCCCCOC(=O)CCC :: -78
16) C#CCO :: -51.8
17) Sc1nc(-c2ccccc2)c(-c2ccccc2)[nH]1 :: 300
18) CC(C)(O)CC(C)(O)c1ccc(Cl)cc1 (stereo unspecified) :: 76.5
19) Cc1ccc(O)c(C(=O)C(F)(F)F)c1 :: 41
20) FC(Cl)C(F)(F)Cl (stereo unspecified) :: -78
21) Cc1ccc(O[Si]23OCCN(CCO2)CCO3)cc1 :: 188
22) CCOC(CN)OCC :: -78
23) CC(=O)OC1(C(C)=O)CCC2C3C=C(C)C4=CC(=O)CCC4(C)C3CCC21C (stereo unspecified) :: 214
24) Nc1ccc(F)c(F)c1 :: 21
25) CC(C)c1cc(C(C)C)c(S(=O)(=O)Cl)c(C(C)C)c1 :: 96
26) CCCc1ssc(=S)c1C :: 49
27) CCCC/C=C/CCCCC :: -61.1
28) CN1CCN(CCCN2c3ccccc3Sc3ccc(C(F)(F)F)cc32)CC1 :: 25
29) CCC1CN2CCc3cc(OC)c(OC)cc3C2CC1CC1NCCc2cc(O)c(OC)cc21 (stereo unspecified) :: 116
30) CNP(=O)(NC)Oc1ccccc1 :: 102
31) O=c1[nH]sc2ccccc12 :: 156
32) CC(CCC(=O)O)n1nc2ccccc2n1 (stereo unspecified) :: 73
33) C#Cc1ccc(C)cc1 :: 21
34) ON=Cc1ccc2ccccc2c1 :: 169
35) CC(=O)OCC(=O)C1CCC2C3CCC4=CC(=O)CCC4(C)C3CCC12C (stereo unspecified) :: 157
36) CC(C)(NC(=O)C(Br)C(C)(C)C)c1ccccc1 (stereo unspecified) :: 180
37) FC(F)(F)c1cc(Cl)c2cccc(Cl)c2n1 :: 62
